This collection of values is drawn from patent US20220049017A1.

- experimental.target: human PCSK9 reference (human, UniProt Q8NBP7 31-692)
- assay.comment: ProteOn SPR, captured antibody, pH 5.8;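 note: antibodies captured on a GLC chip coated with anti-human Fc, rate constants from a 1:1 Langmuir fit of the sensorgrams, Kd derived from the fitted rates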
Measured kon, listed per entry for reference.
// units = M⁻¹ s⁻¹; emit number, no label

binder: CL-148489 (antibody, V domains shown, Human antibody with a kappa light chain) VH: EVQLVESGGGLVQPGRSLRLSCTASGFTFADYVMHWVRQTPGKGLEWVSGISWNSYSINYADSVKGRFTISRDNAQNSLYLQMNSLRAEDTALYFCAKDITYDLLTGYNYNYGLDVWGQGTTVTVSS VL: DIVMTQTPLSLSVTPGQPASISCRSSQSLLHSDGKTYLYWYLQKPGQPPQLLIYEVSNRFSGVPDRFSGSGSGTDFTLKISRVEAEDVGLYYCMQSIQLPLTFGGGTKVEIK
readout.units: M⁻¹ s⁻¹
kon: 1.5e+06

For record CL-148219 (antibody, V domains shown, NLT motif in heavy chain framework 3 confirmed N-glycosylated by mass spectrometry, Human antibody, captured through anti-human Fc in the SPR assay) VH: QVHLQESGPGLVKPSETLSLTCTVSGGSISSYYWSWIRQYPGKGLEWIGYISYSGSSNYNPSLKRRVTISRDTSKNQFSLNLTSVIAADTAVYYCARNLMIRGAYGMDVWGQGTTVTVSS VL: DTVMTQSPLSLPVTPGEPASISCRSSQSLLHSNGYNYLDWYLQKAGQSPQLLIYLGSNRASGVPDRFSGSVSGTDFTLKISRVEAEDVGIYYCMQALQTPFTFGPGTKVDIK the listed kon is 1.02e+06

For record CL-274698 (antibody, V domains shown, Human antibody with a kappa light chain, derived from a PCSK9 knockout mouse) VH: QVQLQESGPGLVKPSGTLSLTCAVSGGSISSSKWWSWVRQPPGKGLEWIGETHYSGSTNYNPSLKSRVTISVDKSKNQFSLKLRSVTAADTAVYYCARVGATENFWGQGTLVTVSS VL: EIVLTQSPATLSLSPGERATLSCRASQSVFRYLAWYQQKPGQAPRLLIYDASTRATDIPARFSGSGSGTDFTLTISSLEPEDFAVYYCQQRSNWPPTFGQGTKVEIK the listed kon is 1.6e+06

For record CL-148219 QLT mutant (antibody, V domains shown) VH: QVHLQESGPGLVKPSETLSLTCTVSGGSISSYYWSWIRQYPGKGLEWIGYISYSGSSNYNPSLKRRVTISRDTSKNQFSLQLTSVIAADTAVYYCARNLMIRGAYGMDVWGQGTTVTVSS VL: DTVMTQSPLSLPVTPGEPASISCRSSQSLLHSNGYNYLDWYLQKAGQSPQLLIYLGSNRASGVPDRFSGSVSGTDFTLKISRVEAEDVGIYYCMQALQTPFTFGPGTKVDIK the listed kon is 622000
